# Test system: DeltatarO mutant
# PROTOCOL DESCRIPTION: S. aureus survival, RN4220 and DeltatarO strains – OD600, teichoic acid synthesis inhibitors, primary screen (AID 463173)
# EXPERIMENTAL CONTEXT: S. aureus RN4220 wild type/DeltatarO growth, OD600, 18 h, active compounds read low, screened at 18.75 µg/mL (by protocol)
The whole screen tested about 52,000 compounds, of which about 4,300 (8.3%) were called active. The entries come from a sample that favours actives as a whole.
OBSERVATION TYPE: survival (%)

In [3]: df
Out[3]:
                                   compound  value_unit  reported_measurement
0  CCc1ccccc1NC(=O)CN1C(=O)C2CCCN2c2ccc(S(=O)(=O)N(CC)CC)cc21 (stereo unspecified)           %                    72
1  O=C(NCc1ccccc1)c1c2c(nc3ccccc13)C(=O)N(C1CCCCC1)C2           %                    69
2          CCOC(=O)c1c(-c2cccs2)csc1NC(C)=O           %                    69
3  Cc1ccccc1Cn1c(SCc2ccc(C(=O)NCCc3ccccc3)cc2)nc2ccncc21           %                    82
4       Oc1ccccc1-c1nc(/C=C/c2ccc(F)cc2)no1           %                    79
5  COc1cccc(NC(=O)CCc2nc3c(C)nn(-c4ccc(C)cc4)c3n(C)c2=O)c1           %                    81

====

# System: DeltatarO mutant
# PROTOCOL DESCRIPTION: S. aureus survival, RN4220 and DeltatarO strains – OD600, teichoic acid synthesis inhibitors, primary screen (AID 463173)
# EXPERIMENTAL CONTEXT: S. aureus RN4220 wild type/DeltatarO growth, OD600, 18 h, screened at 18.75 µg/mL (by protocol)
In all, about 52,000 compounds went through this assay and about 4,300 (8.3%) were called active. No stated cut-off is given here; in the data, active means survival mostly below about 52% (no sharp cut-off); inactive means mostly above about 56%. For the sample, actives were picked, then their nearest neighbours and some compounds at random.
Classes used: Y for active, N for inactive

>>> print(df.to_string())
                                    molecule  label_class
 0  Cc1ccc(OCCn2c(C3CC(=O)N(Cc4ccc(F)cc4)C3)nc3ccccc32)c(C)c1 (centres undefined)            Y
 1  Cc1cc(Nc2cc(Cl)ccc2C)n2nc(-c3ccccc3)nc2n1            N
 2  CCCCNC(=O)CCCn1c(=O)c2ccccc2n(Cc2cccc(Cl)c2)c1=O            N
 3  Cc1ccc(C)c(NC(=O)Cn2c(=O)n(CCC(C)C)c(=O)c3cccnc32)c1            N
 4  Cc1ccccc1-c1noc(-c2ccc(NCc3cccnc3)c([N+](=O)[O-])c2)n1            N
 5  Cc1cccc(C(=O)Nc2sc3c(c2C(=O)N2CCCCC2)CCC(C)C3)c1 (centres undefined)            Y
 6  CCOc1ccc(C(=O)c2cn(Cc3cccc(OC)c3)c3cc4c(cc3c2=O)OCO4)cc1            N
 7  CC(=O)c1cccc(NC(=O)CCn2nc(C)c(S(=O)(=O)N3CCCCC3)c2C)c1            N
 8  O=C1CCSc2ccc(S(=O)(=O)Nc3cccc(C(F)(F)F)c3)cc2N1            Y
 9  CCOc1ccc(NC(=O)c2c(NC(=O)Cc3ccccc3)sc3c2CCC(C)C3)cc1 (centres undefined)            N
10  COc1ccccc1OCCCn1c(C2CC(=O)N(c3ccc(F)cc3)C2)nc2ccccc21 (centres undefined)            N
11  O=C1CCSc2ccc(S(=O)(=O)Nc3ccc(Cl)c(C(F)(F)F)c3)cc2N1            N
12  Cc1nn(CCC(=O)Nc2cccc(C#N)c2)c(C)c1S(=O)(=O)N1CCC(C)CC1            N
13  COc1ccc(Cn2ccc3nc(C)c(C(=O)NCc4ccc(C)cc4)cc3c2=O)cc1            N
14  COc1ccc(Cl)cc1NC(=O)Cn1ncc2c3ccccc3n(Cc3ccccc3)c2c1=O            N
15  Cc1ccc(-c2c3c(=O)n(C)c(=O)n(C)c3c3c(C(F)(F)F)nc4ccccc4n23)cc1            N
16  Cc1ccc(C)c(OCCn2c(C3CC(=O)N(Cc4ccc(F)cc4)C3)nc3ccccc32)c1 (centres undefined)            Y
17  CCN(CC)C(=O)c1c(NC(=O)c2cccc(C)c2)sc2c1CCC(C)C2 (centres undefined)            Y
18  CC1CCc2c(sc(NC(=O)Cc3ccccc3)c2C(=O)Nc2ccc(Cl)cc2)C1 (centres undefined)            N
19  Cc1csc2nc(COC(=O)c3ccccc3NC(=O)c3cccc(Br)c3)cc(=O)n12            N
20  CC(=O)c1ccc(NC(=O)CCn2nc(C)c(S(=O)(=O)N3CCC(C)CC3)c2C)cc1            Y
21  Cc1cccc(NC(=O)c2c(NC(=O)c3ccco3)sc3c2CCC(C)C3)c1 (centres undefined)            N
22  CCOC(=O)c1c(S(=O)(=O)N2CCN(c3cccc(C(F)(F)F)c3)CC2)c(C)n(C)c1C            N
23  Cc1ccc(NC(=O)Cn2cc(S(=O)(=O)c3ccc(C)cc3)c(=O)c3cc4c(cc32)OCO4)cc1            N
24  CNC(=O)c1c(NC(=O)c2cc(=O)c3ccccc3o2)sc2c1CCC2            N
25  CCOc1ccccc1N1CC(c2nc3ccccc3n2CCOc2ccccc2OC)CC1=O (centres undefined)            N
26  Cc1ccc(NS(=O)(=O)c2ccc3c(c2)NC(=O)CCS3)c(Br)c1            Y
27  CC1CCc2c(sc(NC(=O)c3ccccc3)c2C(=O)Nc2ccccc2)C1 (centres undefined)            Y
28  Cc1cccn2c(=O)c3cc(C#N)c(=O)n(-c4nnc(SCc5ccc(Cl)cc5)s4)c3nc12            N
29  Cc1ccc(NC(=O)Cn2c(=O)n(Cc3ccc(F)cc3)c(=O)c3cccnc32)cc1C            N
30  COc1ccc(-n2nc(C(=O)N3CCC(C)CC3)c3c4ccccc4n(C)c3c2=O)cc1Cl            N
31  Cc1ccccc1NS(=O)(=O)c1ccc2c(c1)NC(=O)CCS2            N
32  COc1ccc(-c2nc3sc(CCNC(=O)Cc4ccc(F)cc4)c(C)n3n2)cc1            N
33               CN1CC(=O)Nc2cc(C(=O)O)ccc21            N
